Measured IC50 values are reported for all entries that follow.
# Test system: MYB mRNA
# test: Splicing RT-qPCR assay, MYB canonical (CJ) and alternative (AJ) junction mRNA
# Format: cell-based, human
# applied-conditions: A673 or K562 cells, 24 hours compound treatment, RT-qPCR; read-out: MYB CJ (IC50, decrease in canonical junction mRNA)

Lookup: Fill: IC50 (MYB mRNA) for this compound Cc1cn2cc(NC(=O)c3ccc(N4CCNCC4)c4cn(C)nc34)c(C#N)cc2n1 [Compound 452]
Found: 1000 to 10000 nM

Lookup: Report value only: IC50, MYB mRNA, CCn1cc2c(N3CC[C@@H](NC)C3)ccc(C(=O)Nc3cc(F)c4nc(C)cn4c3)c2n1 [Compound 469]
Found: > 10000 nM

Lookup: Answer briefly: IC50 recorded on MYB mRNA for Cc1cn2cc(NC(=O)c3ccc(N4CCNCC4)c4cn(C)nc34)c(C#N)cc2n1 [Compound 444]
Found: 100 to 1000 nM

Lookup: Give IC50 for CCn1cc2c(N3CC[C@@H](NC)C3)ccc(C(=O)Nc3cc(F)c4nc(C)cn4c3)c2n1 [Compound 393] tested on MYB mRNA.
Found: 100 to 1000 nM

###

# Tested on: MYB mRNA
# test: Splicing RT-qPCR assay, MYB canonical (CJ) and alternative (AJ) junction mRNA
# Format: cell-based, human
# applied-conditions: Homo sapiens, 24 h, A673 or K562 cells, 24 hours compound treatment, RT-qPCR; read-out: MYB AJ (AC50, increase in alternative junction mRNA)
value-kind: AC50

Some solved cases for reference:
CCNC1CCN(c2ccc(C(=O)Nc3cc(F)c4nc(C)cn4c3)c3nn(CC)cc23)C1 (stereo in doubt) [Compound 399]
100 to 1000 nM
Cc1cn2cc(NC(=O)c3ccc(N4CCN(C)C(C)C4)c4cc(C)oc34)cc(F)c2n1 (stereo not shown)
100 to 1000 nM
CC1=NC2C=C(NC(=O)c3ccc(N(C)C4CCN(C)CC4)c4cn(C)nc34)C=C(F)C2=N1 (stereo not shown)
100 to 1000 nM
CCn1cc2c(N3CCC(C)(N)C3)ccc(C(=O)Nc3cc(F)c4nc(C)cn4c3)c2n1 (stereo not shown)
1000 to 10000 nM
CCn1cc2c(N3C[C@@H](C)N[C@@H](C(C)C)C3)ccc(C(=O)Nc3cc(F)c4nc(C)cn4c3)c2n1
1000 to 10000 nM

Lookup: Please look at this compound and report its AC50: COC(C)Cn1cc2c(N3CCNCC3)ccc(C(=O)Nc3cc(F)c4nc(C)cn4c3)c2n1 (stereo not shown)
Found: 100 to 1000 nM

Lookup: Tell me measured AC50 for Cc1cn2cc(NC(=O)c3ccc(N4CCNCC4)c4cn(CCCl)nc34)cc(F)c2n1 please.
Found: 100 to 1000 nM

Lookup: Annotate the compound CCNC1CCN(c2ccc(C(=O)Nc3cc(F)c4nc(C)cn4c3)c3nn(CCOC)cc23)C1 (stereo not shown) with its measured AC50.
Found: < 100 nM

Lookup: Note down AC50 recorded for Cc1cn2cc(NC(=O)c3ccc(N4CCC(NC5(CF)CC5)C4)c4cn(C)nc34)cc(F)c2n1 (stereo not shown)
Found: < 100 nM

Lookup: Answer with the recorded AC50 of CN[C@H]1CCN(c2ccc(C(=O)Nc3cn4cc(C)nc4c(N(C)C)n3)c3nn(C)cc23)C1 only.
Found: > 10000 nM

Lookup: Write down AC50 measured for item CCn1cc2c(N3C[C@@H](C)N[C@@H](C4CC4)C3)ccc(C(=O)Nc3cc(F)c4nc(C)cn4c3)c2n1
Found: 100 to 1000 nM

Lookup: Note down AC50 recorded for CCn1cc2c(N3C[C@@H](C)N[C@@H](C)C3)ccc(C(=O)Nc3cc(F)c4nc(C)cn4c3)c2n1
Found: 100 to 1000 nM

Lookup: State its AC50 for this compound: CCn1cc2c(N3CCC(NC4CC4)CC3)ccc(C(=O)Nc3cc(F)c4nc(C)cn4c3)c2n1
Found: 100 to 1000 nM

Lookup: Please give measured AC50 of the following entry: Cc1cc2nc(NC(=O)c3ccc(N4CCNCC4)c4cn(C)nc34)cc(C)n2n1
Found: > 10000 nM

Lookup: Specify reported AC50 for the compound shown: CCn1cc2c(N3CC[C@H](NC)C3)ccc(C(=O)Nc3cc(F)c4nc(C)cn4c3)c2n1
Found: < 100 nM

Lookup: Consider the compound Cc1cn2nc(NC(=O)c3ccc(C4CCNCC4)c4ccoc34)cc(C)c2n1 and give its recorded AC50.
Found: 1000 to 10000 nM

Lookup: Indicate the recorded AC50 value for this compound: Cn1cc2ccc(NC(=O)c3ccc(N4CCNCC4)c4cn(C)nc34)cc2n1
Found: > 10000 nM

Lookup: Consider the compound COCCn1cc2c(N3C[C@@H](C)N[C@@H](C)C3)ccc(C(=O)Nc3cc(F)c4nc(C)cn4c3)c2n1 . State its measured AC50.
Found: < 100 nM

Lookup: Read the entry Cc1cn2cc(NC(=O)c3ccc(N4CCNCC4)c4cn(C)nc34)nc2c(C)n1 and write its reported AC50.
Found: 100 to 1000 nM

Lookup: Write down AC50 measured for item CCn1cc2c(C3=CCNCC3)ccc(C(=O)Nc3cc(F)c4nc(C)cn4c3)c2n1
Found: 100 to 1000 nM

Lookup: Read the entry Cc1nc2cc(NC(=O)c3ccc(N4CCNCC4)c4cn(C)nc34)ccn2n1 and write its reported AC50.
Found: > 10000 nM

Lookup: # return recorded AC50 for entry Cc1nnc2n1CC(NC(=O)c1ccc(N3CCNCC3)c3cn(C)nc13)CC2 (stereo not shown)
Found: > 10000 nM

Lookup: Please indicate AC50 recorded for Cc1cn2cc(NC(=O)c3ccc(N4CCNCC4)c4cn(C)nc34)cc(C(F)(F)F)c2n1
Found: < 100 nM

###

# System: HTT mRNA
# test: Splicing RT-qPCR assay, HTT canonical (CJ) and alternative (AJ) junction mRNA
# Assay type: cell-based, human
# applied-conditions: Homo sapiens, A673 or K562 cells, 24 hours compound treatment, read-out: HTT AJ (AC50, increase in alternative junction mRNA)
value-kind: AC50

Consider the reported AC50 for these compounds:
CCn1cc2c(N3CCN4CCOC[C@@H]4C3)ccc(C(=O)Nc3cc(F)c4nc(C)cn4c3)c2n1
1 to 10 µM
Cc1cn2cc(NC(=O)c3ccc(N4CCN[C@H](C)C4)c4cn(C)nc34)cc(F)c2n1 (single isomer, unassigned)
0.1 to 1 µM
Cc1cn2cc(NC(=O)c3cc(Cl)c(N4CCNCC4)c4cn(C)nc34)cc(F)c2n1
> 10 µM
Cc1cn2cc(NC(=O)c3ccc(C4CC(C)(C)NC(C)(C)C4)c4cc(C)oc34)cc(F)c2n1
> 10 µM
CCn1cc2c(N3CCNCC3)ccc(C(=O)Nc3cn4cc(C)nc4c(Cl)n3)c2n1
> 10 µM
COCCCn1cc2c(N3CCNCC3)ccc(C(=O)Nc3cc(F)c4nc(C)cn4c3)c2n1
1 to 10 µM

Lookup: Write down measured AC50 (HTT mRNA) for this compound. Cc1cn2cc(NC(=O)c3ccc(N4CC[C@@H](N5C[C@@H](C)N[C@@H](C)C5)C4)c4cn(C)nc34)cc(F)c2n1
Found: > 10 µM

###

# Test system: Target C mRNA
# test: Splicing RT-qPCR gene panel, Target C canonical junction (CJ) mRNA
# Assay type: cell-based, human
# applied-conditions: Homo sapiens, Tables 4A/4B, read-out: Target C (IC50, decrease in CJ mRNA, gene panel)
pIC50: −log10 of the molar value.
value-kind: pIC50

Lookup: Return value of pIC50 for input CCn1cc2c(N3CCN(C)CC3)ccc(C(=O)Nc3cc(F)c4nc(C)cn4c3)c2n1 [Compound 378] , no commentary.
Found: < 5.00

###

// reported IC50 per item
# Tested on: MYB mRNA
# test: Splicing RT-qPCR assay, MYB canonical (CJ) and alternative (AJ) junction mRNA
# Type: cell-based, human
# applied-conditions: Homo sapiens, 24 h, A673 or K562 cells, 24 hours compound treatment, RT-qPCR; read-out: MYB CJ (IC50, decrease in canonical junction mRNA)

CCn1cc2c(N3C[C@@H](C4CC4)N[C@@H](C)C3)ccc(C(=O)Nc3cc(F)c4nc(C)cn4c3)c2n1 [Compound 617]
100 to 1000 nM

Lookup: Could you please provide reported IC50 for CCn1cc2c(N3CCC(NCC4(O)CC4)CC3)ccc(C(=O)Nc3cc(F)c4nc(C)cn4c3)c2n1 [Compound 576] ? Thanks!
Found: 100 to 1000 nM

Lookup: Recall and state the measured IC50 for Cc1cn2cc(NC(=O)c3ccc(N4CC[C@@H](NCc5cnc(Cl)nc5)C4)c4cn(C)nc34)cc(F)c2n1 [Compound 573] .
Found: 100 to 1000 nM

Lookup: Write down IC50 measured for item Cc1cn2cc(NC(=O)c3ccc(N4CCNCC4)c4c[nH]nc34)cc(F)c2n1 [Compound 490]
Found: 1000 to 10000 nM
